experiment: chemical genetic growth profiling, strain panel (AID 1159580);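 further: tested at 20 µM; growth read once vehicle control cultures reached saturation at 30 °C; 1 = growth at the plate median or of vehicle wells; lower values mean less growth of the strain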; conditions: S. cerevisiae deletion strains, growth OD, locus YJL187C, strain SWE1 (second series), stronger effect = lower value
About 2,000 (36%) of roughly 5,500 compounds were called active. Another 18% or so got no clear call; they are omitted. The list shows a part of the results.
measurementName: normalized growth
A bare number is all that is needed in reply.

[
  {
    "molecule": "CC(=O)O[C@H]1CCC2(C)C3=C(CCC2C1(C)C)[C@@]1(C)CC[C@@H](C(C)CCC=C(C)C)[C@]1(C)CC3 (stereo partly drawn)",
    "normalized growth": 0.989
  }
]

Could you now look at the following molecule, please?
Request: Quickly give me recorded normalized growth for "COc1cc(C(C)=O)cc(OC)c1O"
Response: 1.02
